# protocolNotes: Acidity (pKa / pKa*) of coordinated water, 1H NMR pH* titration
propertyName: pKa* of the aqua adduct
Reply with the value as a number alone.

QUERY: Please report the recorded pKa* of the aqua adduct for O=C([O][Os][Cl])c1cc(Cl)ccn1.c1ccc(-c2ccccc2)cc1 [Compound 4, [(η^6-bip)Os(4-Cl-pico)Cl]] .
RESULT: 6.30

QUERY: Any idea what pKa* of the aqua adduct was measured for O=C(O)c1ccnc(C(=O)[O][Os][Cl])c1.c1ccc(-c2ccccc2)cc1 [Compound 5, [(η^6-bip)Os(4-CO2H-pico)Cl]] ?
RESULT: 6.61

QUERY: Form field: reported pKa* of the aqua adduct of Cc1ccnc(C(=O)[O][Os][Cl])c1.c1ccc(-c2ccccc2)cc1 [Compound 6, [(η^6-bip)Os(4-Me-pico)Cl]]
RESULT: 6.42

QUERY: Fill blank: measured pKa* of the aqua adduct of the molecule Cc1cccc(C(=O)[O][Os][Cl])n1.c1ccc(-c2ccccc2)cc1 [Compound 3, [(η^6-bip)Os(6-Me-pico)Cl]] is ____.
RESULT: 6.34

All values here come from patent US20100291236A1.
